inhibition at 1 µM listing for selected compounds.
SYSTEM_TESTED: ABHD6 (Mus musculus (Mouse))
MEASUREMENT_NOTES: In vitro competitive activity-based protein profiling (mouse brain membrane fraction or cell lysates), ABHD6 band
Type: biochemical
COND: 1 μM, mouse proteome; read-out: ABHD6 % Inh 1 μM (mouse)

Param item = O=C(OC(C(F)(F)F)C(F)(F)F)N1CCC2(CCN(Cc3ccc(Cl)cc3N3CCCCC3)C2)CC1 ; retrieve measured inhibition at 1 µM.
< 25%

Param item = O=C(OC(C(F)(F)F)C(F)(F)F)N1CCC2(CCCN2Cc2cccc(OCCN3CCCC3)c2)CC1 ; retrieve measured inhibition at 1 µM.
< 25%

Next:
Param item = CCN1CCN(c2cc(Cl)ccc2CN2CCCC23CCN(C(=O)OC(C(F)(F)F)C(F)(F)F)CC3)CC1 ; retrieve measured inhibition at 1 µM.
< 25%

Param item = COC(=O)C1CCN(c2cc(C(F)(F)F)ccc2CN2CC3(CCN(C(=O)OC(C(F)(F)F)C(F)(F)F)CC3)CC2(C)C)CC1 ; retrieve measured inhibition at 1 µM.
< 25%

Param item = O=C(OC(C(F)(F)F)C(F)(F)F)N1CCC2(CCCN2Cc2ccc(C(F)(F)F)cc2Oc2cccnc2)CC1 ; retrieve measured inhibition at 1 µM.
25 to 75%

Param item = CC1(C)CC2(CCN(C(=O)OC(C(F)(F)F)C(F)(F)F)CC2)CN1Cc1cccc(N2CCOCC2)c1Cl ; retrieve measured inhibition at 1 µM.
≥ 75%

Param item = Cc1cc(CN2CCC3(CCN(C(=O)OC(C(F)(F)F)C(F)(F)F)CC3)C2)ccc1Cl ; retrieve measured inhibition at 1 µM.
≥ 75%

---

SYSTEM_TESTED: ABHD6 (Mus musculus (Mouse), UniProt Q8R2Y0)
Sequence (Q8R2Y0 whole entry): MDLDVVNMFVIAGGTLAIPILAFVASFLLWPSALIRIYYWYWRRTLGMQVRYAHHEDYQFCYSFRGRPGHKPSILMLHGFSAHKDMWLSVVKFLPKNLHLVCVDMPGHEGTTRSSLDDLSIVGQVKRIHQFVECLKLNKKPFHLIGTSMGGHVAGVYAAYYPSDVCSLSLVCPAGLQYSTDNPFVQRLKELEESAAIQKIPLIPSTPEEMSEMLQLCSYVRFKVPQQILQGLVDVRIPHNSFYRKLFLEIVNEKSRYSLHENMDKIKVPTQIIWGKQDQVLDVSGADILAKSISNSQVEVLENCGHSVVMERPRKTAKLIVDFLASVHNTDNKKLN
MEASUREMENT_NOTES: In vitro competitive activity-based protein profiling (mouse brain membrane fraction or cell lysates), ABHD6 band
Assay type: biochemical
COND: 1 μM, mouse proteome; read-out: ABHD6 % Inh 1 μM (mouse)
EXPERIMENTAL_READOUT: inhibition at 1 µM

Example entries begin here.
Param item = O=C(OC(C(F)(F)F)C(F)(F)F)N1CCC2(CCN(Cc3ccc(C(F)(F)F)cc3N3CC4COCC4C3)C2)CC1 (stereo not shown) [Example 26] ; retrieve measured inhibition at 1 µM.
≥ 75%

Param item = O=C(O)C1CN(c2cc(C(F)(F)F)ccc2CN2CCCC23CCN(C(=O)OC(C(F)(F)F)C(F)(F)F)CC3)CCO1 (stereo not shown) [Example 197] ; retrieve measured inhibition at 1 µM.
25 to 75%

Param item = O=C(OC(C(F)(F)F)C(F)(F)F)N1CCC2(CCCN2Cc2ccc(Cl)cc2N2CCS(=O)(=O)CC2)CC1 [Example 103] ; retrieve measured inhibition at 1 µM.
≥ 75%

Next:
Param item = O=C(OC(C(F)(F)F)C(F)(F)F)N1CCC2(CCCN2Cc2ccc(C(F)(F)F)cc2N2CCCCCC2)CC1 [Example 95] ; retrieve measured inhibition at 1 µM.
< 25%

---

SYSTEM_TESTED: ABHD6 (Mus musculus (Mouse))
MEASUREMENT_NOTES: Mouse brain proteomes from inhibitor treated mice (oral gavage, sacrificed 4 h after administration, ABPP analysis), ABHD6
Format: in vivo, mouse (C57Bl/6J)
COND: 5 mg/kg oral gavage
EXPERIMENTAL_READOUT: ABHD6 % Inh 5 mg/kg (mouse)

Param item = O=C(OC(C(F)(F)F)C(F)(F)F)N1CCC2(CCCN2Cc2ccc(Cl)cc2N2CCC(F)CC2)CC1 ; retrieve measured ABHD6 % Inh 5 mg/kg (mouse).
# (# is <25%)

Param item = CC1(C)CC2(CCN(C(=O)OC(C(F)(F)F)C(F)(F)F)CC2)CN1Cc1ccc(Cl)cc1N1CCOCC1 ; retrieve measured ABHD6 % Inh 5 mg/kg (mouse).
# (# is <25%)

Param item = O=C(OC(C(F)(F)F)C(F)(F)F)N1CCC2(CCCN2Cc2cc(Cl)cc(N3CCCC3)c2)CC1 ; retrieve measured ABHD6 % Inh 5 mg/kg (mouse).
# (# is <25%)

Param item = CC1(C)CC2(CCN(C(=O)OC(C(F)(F)F)C(F)(F)F)CC2)CN1Cc1ccc(C(F)(F)F)cc1N1CCC2(CCOCC2)C1 ; retrieve measured ABHD6 % Inh 5 mg/kg (mouse).
# (# is <25%)
